experiment: Selectivity index, ratio of CC50 for human MRC5 cells to IC50 for epimastigote form of Trypanosoma cruzi Tulahuen 2; format: functional
measurement_kind: Ratio CC50/IC50

# molecule, measurement_kind, endpoint_value
rows = [
    ("CC(C)(C)OC(=O)N1CCCC1C(=O)O/N=C1\\c2ccccc2-c2c1c(-n1ccnc1)nc1ccc(Br)cc21 (centres undefined)", "Ratio CC50/IC50", 1.08),
    ("O=C1c2ccccc2-c2c1c(Nc1ccncc1)nc1ccc(Br)cc21", "Ratio CC50/IC50", 3),
    ("CCCC(=O)O/N=C1\\c2ccccc2-c2c1c(-n1ccnc1)nc1ccc(Br)cc21", "Ratio CC50/IC50", 3.45),
    ("COc1nc2ccc(Br)cc2c2c1C(C)(OCC(O)CN1CCN(Cc3ccccc3)CC1)c1ccccc1-2 (mixture of isomers)", "Ratio CC50/IC50", 0.77),
]

* * *

assay: Lipophilicity, log P of the compound; format: physicochemical; conditions: octanol/water
measurement_kind: logP

# molecule, endpoint_value
records = [
    ("COc1cccc(NC(=O)Nc2ccc3nc(Oc4ccc(F)cc4C(C)O)c(Cc4ccccc4)cc3c2)c1 (configuration not stated)", 6.72),
    ("CCCCC(=O)OC1(C)c2ccccc2-c2c1c(-n1ccnc1)nc1ccc(Br)cc21 (configuration not stated)", 5.58),
    ("COc1ccccc1NC(=S)Nc1ccc2nc(Oc3ccc(F)cc3C(C)O)c(Cc3ccccc3)cc2c1 (configuration not stated)", 7.86),
    ("CC1(O)c2ccccc2-c2c1c(OCC(F)(F)F)nc1ccc(Br)cc21 (configuration not stated)", 5.71),
    ("O=C1c2ccccc2-c2c1c(N1CCN(c3ccccn3)CC1)nc1ccc(Br)cc21", 6.01),
    ("CC(=O)OC1(C)c2ccccc2-c2c1c(-n1ccnc1)nc1ccc(Br)cc21 (configuration not stated)", 4.09),
    ("COc1nc2ccc(Br)cc2c2c1C(C)(OCC(O)Cn1ccnc1)c1ccccc1-2 (configuration not stated)", 3.68),
    ("OC(c1ccccc1)c1c(C(F)(F)F)nc2ccc(Br)cc2c1Br (configuration not stated)", 6.26),
    ("CC(O)c1cc(F)ccc1Oc1nc2ccc(NC(=O)Nc3cccc([N+](=O)[O-])c3)cc2cc1Cc1ccccc1 (configuration not stated)", 6.84),
    ("COc1nc2ccc(Br)cc2c2c1C(C)(OCC(O)CN1CCN(Cc3ccccc3)CC1)c1ccccc1-2 (mixture of isomers)", 5.85),
    ("COc1nc2ccc(Br)cc2c2c1C(C)(OCC(O)CN)c1ccccc1-2 (configuration not stated)", 3.46),
    ("COc1nc2ccc(Br)cc2c2c1C(C)(OCC(O)CN1CCN(C(c3ccccc3)c3ccccc3)CC1)c1ccccc1-2 (mixture of isomers)", 7.56),
    ("COc1ccccc1NC(=O)Nc1ccc2nc(Oc3ccc(F)cc3C(C)O)c(Cc3ccccc3)cc2c1 (configuration not stated)", 6.72),
    ("COc1ccc(NC(=S)Nc2ccc3nc(Oc4ccc(F)cc4C(C)O)c(Cc4ccccc4)cc3c2)cc1 (configuration not stated)", 7.86),
    ("CC1(OCC2CO2)c2ccccc2-c2c1c(C(F)(F)F)nc1ccc(Br)cc21 (configuration not stated)", 5.23),
    ("CC(c1cc(F)ccc1Oc1nc2ccc(-n3cc(-c4ccccc4)nn3)cc2cc1Cc1ccccc1)n1ccnc1 (configuration not stated)", 7.91),
    ("CC1(O)c2ccccc2-c2c1c(-n1ccnc1)nc1ccc(Br)cc21 (configuration not stated)", 3.86),
]
